experiment: Stability test of salts of compound 1 (HPLC, XRD); format: physicochemical; settings: 25° C. closed, day 30
Counter-ions that a name gives are not always drawn.
recorded_endpoint: TRS (%)

The examples below pair each entry with its known result.
>>> measurement("CN[C@@H](C)C(=O)N[C@H]1CN(S(=O)(=O)c2cccc(S(=O)(=O)N3CC[C@H]4CC[C@@H](C(=O)NC(c5ccccc5)c5ccccc5)N4C(=O)[C@@H](NC(=O)[C@H](C)NC)C3)c2)CC[C@H]2CCC(C(=O)NC(c3ccccc3)c3ccccc3)N2C1=O (stereo partly shown) [Compound 1 dimethanesulfonate crystalline Form XVIII]")
"2.55%"
>>> measurement("CN[C@@H](C)C(=O)N[C@H]1CN(S(=O)(=O)c2cccc(S(=O)(=O)N3CC[C@H]4CC[C@@H](C(=O)NC(c5ccccc5)c5ccccc5)N4C(=O)[C@@H](NC(=O)[C@H](C)NC)C3)c2)CC[C@H]2CCC(C(=O)NC(c3ccccc3)c3ccccc3)N2C1=O (stereo partly shown) [Compound 1 di-p-toluenesulfonate amorphous Form XVI]")
"1.80%"
>>> measurement("CN[C@@H](C)C(=O)N[C@H]1CN(S(=O)(=O)c2cccc(S(=O)(=O)N3CC[C@H]4CC[C@@H](C(=O)NC(c5ccccc5)c5ccccc5)N4C(=O)[C@@H](NC(=O)[C@H](C)NC)C3)c2)CC[C@H]2CCC(C(=O)NC(c3ccccc3)c3ccccc3)N2C1=O (stereo partly shown) [compound 1 disulfate amorphous form XXIII]")
"4.83%"

Please turn your attention to the following entry.
Entry under test: CN[C@@H](C)C(=O)N[C@H]1CN(S(=O)(=O)c2cccc(S(=O)(=O)N3CC[C@H]4CC[C@@H](C(=O)NC(c5ccccc5)c5ccccc5)N4C(=O)[C@@H](NC(=O)[C@H](C)NC)C3)c2)CC[C@H]2CCC(C(=O)NC(c3ccccc3)c3ccccc3)N2C1=O (stereo partly shown) [compound 1 dihydrochloride amorphous form V] . Its TRS (%) was 0.83%

====

assay: Stability test of salts of compound 1 (HPLC, XRD); format: physicochemical; details: 25° C. closed, day 10
Counter-ions that a name gives are not always drawn.
recorded_endpoint: XPRD

>>> measurement("CN[C@@H](C)C(=O)N[C@H]1CN(S(=O)(=O)c2cccc(S(=O)(=O)N3CC[C@H]4CC[C@@H](C(=O)NC(c5ccccc5)c5ccccc5)N4C(=O)[C@@H](NC(=O)[C@H](C)NC)C3)c2)CC[C@H]2CCC(C(=O)NC(c3ccccc3)c3ccccc3)N2C1=O (stereo partly shown) [compound 1 disulfate amorphous form XXIII]")
"Amorphous"
>>> measurement("CN[C@@H](C)C(=O)N[C@H]1CN(S(=O)(=O)c2cccc(S(=O)(=O)N3CC[C@H]4CC[C@@H](C(=O)NC(c5ccccc5)c5ccccc5)N4C(=O)[C@@H](NC(=O)[C@H](C)NC)C3)c2)CC[C@H]2CCC(C(=O)NC(c3ccccc3)c3ccccc3)N2C1=O (stereo partly shown) [Compound 1 di-p-toluenesulfonate amorphous Form XVI]")
"Amorphous"
>>> measurement("CN[C@@H](C)C(=O)N[C@H]1CN(S(=O)(=O)c2cccc(S(=O)(=O)N3CC[C@H]4CC[C@@H](C(=O)NC(c5ccccc5)c5ccccc5)N4C(=O)[C@@H](NC(=O)[C@H](C)NC)C3)c2)CC[C@H]2CCC(C(=O)NC(c3ccccc3)c3ccccc3)N2C1=O (stereo partly shown) [compound 1 dihydrochloride amorphous form V]")
"Amorphous"
